Test system: COLO 205
Test: NCI tumour cell line growth inhibition, 48 h
Activity calls are given as the source filed them. Rule as the data show it: active = GI50 up to about 1.1 µM and inactive = higher.
Outcomes you can answer with include only these: label 1 = active, label 0 = inactive

Below are worked cases with known answers.
1. CN(C)c1cccc(-c2cc(O)c3ccccc3n2)c1 ... label 0
2. Cc1ccccc1C1CC(=O)CC(c2ccccc2C)C12C(=O)NC(=S)NC2=O (stereo unspecified) ... label 0
3. S=C(N/N=C(/c1ccccc1)c1ccccn1)N1CCCCC1 ... label 1
4. CC(C)OP(=O)(OC(C)C)/C(=N/Nc1ccc([N+](=O)[O-])cc1)NCCO ... label 0
5. O=c1[nH]nc(-c2ccccc2)n1-c1cccc([N+](=O)[O-])c1 ... label 0

Query :: Any idea what this test logged for Cc1c(Cl)ccc2c(=O)c3cccc(CC(=O)O)c3oc12 ?
Result :: label 0

Query :: Per the assay record, what outcome was assigned to C[N+]12C=CC=C1C(N1CCCC1)c1scc(-c3ccc(Br)cc3)c12 (stereo unspecified) ?
Result :: label 0
